Below, each of the compounds is paired with its reported pIC50 value.
tested on: COX-2; assay: COX-2 activity in vitro (PGE2 formed, ELISA); type: biochemical, human or murine; details: recombinant enzyme, arachidonic acid 10 μM, pH 8.0; read-out: COX II ID50
pIC50: −log10 of the molar value.
measure: pIC50

# compound, reported.measurement
rows = [
    ("CS(=O)(=O)c1ccc(-c2oc(COc3cccc(Cl)c3)nc2-c2ccc(F)cc2)cc1", "> 7.00"),
    ("NS(=O)(=O)c1ccc(-c2nc(CC(=O)O)oc2-c2ccc(F)c(Cl)c2)cc1", 4.10),
    ("COC(=O)CCc1nc(-c2ccc(S(C)(=O)=O)cc2)c(-c2ccc(F)cc2)o1", 6.70),
    ("NS(=O)(=O)c1ccc(-c2nc(C(Br)C(=O)O)oc2-c2ccc(Cl)cc2)cc1 (centres unmarked)", 6.10),
    ("COc1c(F)cc(-c2oc(C(F)(F)F)nc2-c2ccc(S(N)(=O)=O)cc2)cc1Br", 7.00),
    ("NS(=O)(=O)c1ccc(-c2oc(Cl)nc2-c2ccccc2)cc1", "> 7.00"),
    ("Cc1nc(-c2ccccc2)c(-c2ccc(S(N)(=O)=O)cc2)o1", "> 7.00"),
    ("NS(=O)(=O)c1ccc(-c2oc(OCC(F)(F)F)nc2-c2ccccc2)cc1", "> 7.00"),
    ("NS(=O)(=O)c1ccc(-c2oc(CC(=O)O)nc2-c2ccccc2)cc1", "> 7.00"),
    ("NS(=O)(=O)c1ccc(-c2oc(Oc3c(F)c(F)c(F)c(F)c3F)nc2-c2ccccc2)cc1", "> 7.00"),
    ("Cc1nc(-c2ccc(S(C)(=O)=O)cc2)c(-c2ccc(F)cc2)o1", "< 5.00"),
    ("CS(=O)(=O)c1ccc(-c2oc(-c3ccccc3)nc2-c2ccc(F)cc2)cc1", "> 7.00"),
    ("CCOC(=O)c1ccccc1Oc1nc(-c2ccccc2)c(-c2ccc(S(N)(=O)=O)cc2)o1", "> 7.00"),
    ("CCOC(=O)c1cccc(Oc2nc(-c3ccccc3)c(-c3ccc(S(N)(=O)=O)cc3)o2)c1", "> 7.00"),
    ("COCc1nc(-c2ccccc2)c(-c2ccc(S(N)(=O)=O)cc2)o1", "> 7.00"),
    ("COc1ccc(-c2oc(CC(=O)O)nc2-c2ccc(S(N)(=O)=O)cc2)cc1F", 4.89),
    ("CN(C)c1ccc(-c2nc(C(F)(F)F)oc2-c2ccc(S(N)(=O)=O)cc2)cc1", "> 7.00"),
    ("CCOC(=O)C(Cc1ccccc1)c1nc(-c2ccc(F)cc2)c(-c2ccc(S(C)(=O)=O)cc2)o1 (centres unmarked)", 7.30),
    ("CS(=O)(=O)c1ccc(-c2oc(-c3ccccc3)nc2C2CCCCC2)cc1", 6.30),
    ("CN(C)c1nc(-c2ccccc2)c(-c2ccc(S(N)(=O)=O)cc2)o1", "> 7.00"),
    ("NS(=O)(=O)c1ccc(-c2ocnc2-c2ccccc2)cc1", 4.10),
    ("NS(=O)(=O)c1ccc(-c2oc(CC(=O)O)nc2-c2ccc(Cl)cc2)cc1", 5.85),
    ("NS(=O)(=O)c1ccc(-c2nc(C(F)(F)F)oc2-c2ccc(F)c(F)c2)cc1", "> 7.00"),
    ("NS(=O)(=O)c1ccc(-c2oc(C(F)(F)F)nc2-c2ccccc2)cc1", "> 7.00"),
    ("NS(=O)(=O)c1ccc(-c2nc(C(F)(F)F)oc2-c2ccc(Cl)cc2)cc1", "> 7.00"),
    ("NS(=O)(=O)c1ccc(-c2oc(Oc3cccc(Cl)c3)nc2-c2ccccc2)cc1", "> 7.00"),
    ("COc1nc(-c2ccccc2)c(-c2ccc(S(N)(=O)=O)cc2)o1", "> 7.00"),
    ("Cc1ccc(-c2nc(C(F)(F)F)oc2-c2ccc(S(C)(=O)=O)cc2)cc1", "> 7.00"),
    ("NS(=O)(=O)c1ccc(-c2oc(CCC(=O)O)nc2-c2ccccc2)cc1", 5.51),
    ("NS(=O)(=O)c1ccc(-c2oc(SCC(=O)O)nc2-c2ccccc2)cc1", 5.68),
    ("CCOC(=O)Cc1nc(-c2ccc(S(N)(=O)=O)cc2)c(-c2ccc(OC)c(F)c2)o1", "> 7.00"),
    ("CS(=O)(=O)c1ccc(-c2oc(CCc3ccccc3)nc2-c2ccc(F)cc2)cc1", "> 7.00"),
    ("NC(=O)c1nc(-c2ccccc2)c(-c2ccc(S(N)(=O)=O)cc2)o1", 5.66),
    ("NS(=O)(=O)c1ccc(-c2nc(CC(=O)O)oc2-c2ccc(Cl)c(Cl)c2)cc1", "> 7.00"),
    ("NS(=O)(=O)c1ccc(-c2oc(CO)nc2-c2ccccc2)cc1", "> 7.00"),
]
